molecular target: T1, Human PD-1-His protein (ACROBiosystems, # PD1-H5221) (human, UniProt Q15116 25-167); test: ELISA, plate-coated human PD-1-His
T1 construct: Bought reagent, coated on the ELISA plate; also called human PD-1 protein; human PD-1 antigen; not shown: His tag
T1 sequence (Q15116 25-167 limits assumed): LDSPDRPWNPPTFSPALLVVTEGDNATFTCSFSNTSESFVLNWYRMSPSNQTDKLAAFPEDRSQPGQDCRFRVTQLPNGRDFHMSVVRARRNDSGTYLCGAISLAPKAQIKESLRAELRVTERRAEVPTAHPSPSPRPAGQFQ
Answer each item with its documented pEC50.
Value format note: pEC50 is -log10 of concentration (mol/L); just state the number.

input: Look up pEC50 for this binder: PR002481 (antibody, human IgG1, V domains shown, Heavy-chain-only antibody (HCAb), human IgG1 Fc; two heavy chains, no light chain; also called R4004P556D1; anti-PD1 R4004P556D1 HCAb hG1) VH: EVQLVETGGGLIQPGGSLRLSCAASGFNVSSHYMSWVRQAPGKGREWVSIIDGGGSTYYADSVKGRFTISRDNSKNRLYLQMNSLRAEDTAMYYCARATAVAEKNGYNYPFNYWGQGTLVTVSS
output: 10.37

input: Fill in the blank: the reported pEC50 of PR002474 (antibody, human IgG1, V domains shown, Heavy-chain-only antibody (HCAb), human IgG1 Fc; two heavy chains, no light chain; also called R4004P547D3) VH: EVQLVETGGGLIQPGGSLRLSCAASGFNVSSHYMSWVRQAPGKGLEWVSIIHSGGSTYYADSVKGRFTISRDNSKNRLYLQMNSLRADDTAVYYCARATAVAEKNGYNYPFNYWGQGTLVTVSS is ____.
output: 9.72

input: Tell me the measured pEC50 of PR000675 (antibody, human IgG4 S228P, kappa, V domains shown, Fully human recombinant H2L2 antibody, human IgG4, kappa light chain; also called 4004_19G8F2) VH: EVQLLESGGGLVQPGGSLRLSCVDSGFTFSSYAMTWVRQAPGKGLEWVSGISGSGYSTYYADSVKGRFTISRDNSKKTLYLQMNSLRAEDTAVYYCAELSLDYWGQGTLVTVSS VL: EIVLTQSPATLSLSPGERATLSCRASQSVSRYLAWYQQKPGQAPRLLMHDAANRATGLPARFNGSGSGTDFTLTISSLEPEDFAVYYCQQRNNWPLTFGGGTKVEIKR , please.
output: 9.95
